# tested.target: human mGluR4 (hmGluR4) (Homo sapiens)
# Sequence (Q14833 33-912): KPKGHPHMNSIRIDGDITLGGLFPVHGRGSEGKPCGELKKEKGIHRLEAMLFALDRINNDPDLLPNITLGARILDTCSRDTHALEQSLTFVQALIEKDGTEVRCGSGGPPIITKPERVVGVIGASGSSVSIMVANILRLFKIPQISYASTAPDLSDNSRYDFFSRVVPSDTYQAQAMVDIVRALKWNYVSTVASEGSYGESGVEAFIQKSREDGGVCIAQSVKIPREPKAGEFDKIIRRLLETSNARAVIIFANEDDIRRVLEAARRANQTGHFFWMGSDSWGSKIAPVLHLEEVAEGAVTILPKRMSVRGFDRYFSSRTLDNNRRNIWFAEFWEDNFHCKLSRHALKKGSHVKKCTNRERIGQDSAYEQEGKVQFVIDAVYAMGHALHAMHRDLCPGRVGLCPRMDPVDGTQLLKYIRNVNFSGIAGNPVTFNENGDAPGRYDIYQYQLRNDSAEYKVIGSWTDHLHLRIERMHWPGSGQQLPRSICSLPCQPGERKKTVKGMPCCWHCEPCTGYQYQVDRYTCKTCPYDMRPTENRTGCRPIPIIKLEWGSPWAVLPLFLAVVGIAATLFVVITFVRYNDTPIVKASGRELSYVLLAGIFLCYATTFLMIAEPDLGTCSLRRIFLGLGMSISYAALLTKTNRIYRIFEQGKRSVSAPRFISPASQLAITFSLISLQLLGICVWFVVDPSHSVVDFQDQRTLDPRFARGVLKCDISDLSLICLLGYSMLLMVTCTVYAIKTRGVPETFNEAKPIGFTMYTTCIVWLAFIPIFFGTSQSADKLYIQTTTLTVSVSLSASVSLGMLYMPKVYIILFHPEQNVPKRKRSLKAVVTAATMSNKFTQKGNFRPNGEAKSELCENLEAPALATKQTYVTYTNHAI
# test.protocol: Calcium assay EC50 determination, positive allosteric modulator activity on hmGluR4 transiently over-expressed in HEK-293 cells
# condition.parameters: PAM mode with EC20 glutamate; hmGluR4 in HEK-293 cells; intracellular calcium (Fluo4AM); read-out: mGluR4 positive allosteric modulator activity, half maximal effective concentration (EC50)
Structures can show the parent of a compound that is named as a salt.
property: EC50

Example cases with answers are listed next.
{"compound": "Cc1cc(OCC2CCOC2)cc2c(=O)[nH]c(-c3cc4ccsc4cn3)nc12 (stereo not shown) [Compound 80]", "EC50": "≤ 100 nM"}
{"compound": "Cc1cc(CN2CCSCC2)cc2c(=O)[nH]c(-c3cc4ccsc4cn3)nc12.Cl [Compound 137, hydrochloride]", "EC50": "≤ 100 nM"}
{"compound": "O=c1[nH]c(-c2cc3ccsc3cn2)nc2cc(C(F)(F)F)c(OCCCc3ccncc3)cc12 [Compound 70, hydrochloride]", "EC50": "1000 to 10000 nM"}
{"compound": "CCC(=O)N1CCC(COc2ccc3nc(-c4cc5ccsc5cn4)[nH]c(=O)c3c2)CC1 [Compound 48]", "EC50": "100 to 1000 nM"}
{"compound": "CCC(=O)N1CC(Oc2cc(C)c3nc(-c4cc(C(F)(F)F)ccn4)[nH]c(=O)c3c2)C1 [Compound 103]", "EC50": "100 to 1000 nM"}

Cc1cc(OCCCc2ccncc2)cc2c(=O)[nH]c(-c3cc4cccn4cn3)nc12 [Compound 106, hydrochloride] yielded EC50 of ≤ 100 nM

Cc1cc(OC2CCC(=O)N(C)C2)cc2c(=O)[nH]c(-c3cc4ccsc4cn3)nc12 (single isomer, unassigned) [Compound 81-E1] yielded EC50 of ≤ 100 nM
